Data origin: patent US8039458B2

Listed here: items and their measured EC50.
# Test system: recombinant NL-Rluc virus
# procedure.summary: Inhibition of HIV replication (NL-RLuc virus, Renilla luciferase)
# Type: cell-based
# details: Human immunodeficiency virus 1, read-out: antiviral actitively

- record.smiles: "CCc1ncnn1-c1cc(F)ccc1CNC(=O)c1nc2n(c(=O)c1O)CCOCC21CCCC1"
  target.or.system: "recombinant NL-Rluc virus"
  EC50: "1 to 10 nM"
- record.smiles: "O=C(NCc1ccc(F)cc1-n1ncnc1CF)c1nc2n(c(=O)c1O)CCOCC21CCOCC1"
  target.or.system: "recombinant NL-Rluc virus"
  EC50: "1 to 10 nM"
- record.smiles: "Cn1ncnc1-c1cc(F)ccc1CNC(=O)c1nc2n(c(=O)c1O)CCOCC21CCOCC1"
  target.or.system: "recombinant NL-Rluc virus"
  EC50: "1 to 10 nM"
- record.smiles: "Cc1ncnn1-c1cc(F)ccc1CNC(=O)c1nc2n(c(=O)c1O)CCOCC21CCOCC1"
  target.or.system: "recombinant NL-Rluc virus"
  EC50: "1 to 10 nM"
- record.smiles: "Cc1cnnn1-c1cc(F)ccc1CNC(=O)c1nc2n(c(=O)c1O)CCOCC2(C)C"
  target.or.system: "recombinant NL-Rluc virus"
  EC50: "1 to 10 nM"
- record.smiles: "O=C(NCc1ccc(F)cc1)c1nc2n(c(=O)c1O)CCOCC21CCC1"
  target.or.system: "recombinant NL-Rluc virus"
  EC50: "10 to 50 nM"
- record.smiles: "Cc1nnn(-c2cc(F)ccc2CNC(=O)c2nc3n(c(=O)c2O)CCOCC3(C)C)c1C"
  target.or.system: "recombinant NL-Rluc virus"
  EC50: "1 to 10 nM"
- record.smiles: "O=C(NCc1ccc(F)cc1-n1cncn1)c1nc2n(c(=O)c1O)CCOCC21CCC1"
  target.or.system: "recombinant NL-Rluc virus"
  EC50: "1 to 10 nM"
- record.smiles: "Cc1ncn(-c2cc(F)ccc2CNC(=O)c2nc3n(c(=O)c2O)CCOCC32CCCC2)n1"
  target.or.system: "recombinant NL-Rluc virus"
  EC50: "1 to 10 nM"
- record.smiles: "CC1(C)COCCn2c1nc(C(=O)NCc1ccc(F)cc1-n1ncnc1-c1ccccc1)c(O)c2=O"
  target.or.system: "recombinant NL-Rluc virus"
  EC50: "> 50 nM"
- record.smiles: "Cc1nn(-c2cc(F)ccc2CNC(=O)c2nc3n(c(=O)c2O)CCOCC32CCOCC2)c(=O)n1C"
  target.or.system: "recombinant NL-Rluc virus"
  EC50: "1 to 10 nM"
- record.smiles: "O=C(NCc1ccc(F)cc1-n1cnc(CO)n1)c1nc2n(c(=O)c1O)CCOCC21CCOCC1"
  target.or.system: "recombinant NL-Rluc virus"
  EC50: "> 50 nM"
- record.smiles: "Cc1ncn(-c2cc(F)ccc2CNC(=O)c2nc3n(c(=O)c2O)CCOCC3(C)C)n1"
  target.or.system: "recombinant NL-Rluc virus"
  EC50: "1 to 10 nM"
- record.smiles: "CNC(=O)c1cc(F)ccc1CNC(=O)c1nc2n(c(=O)c1O)CCOCC21CCOCC1"
  target.or.system: "recombinant NL-Rluc virus"
  EC50: "1 to 10 nM"
- record.smiles: "O=C(NCc1ccc(F)cc1-n1cncn1)c1nc2n(c(=O)c1O)CCOCC21CCOCC1"
  target.or.system: "recombinant NL-Rluc virus"
  EC50: "1 to 10 nM"
